# Tested on: gel-filtered platelets
# Test: Inhibition of thrombin-induced gel-filtered platelet aggregation
# Assay type: cell-based
# Condition set: aggregation initiated by human α-thrombin 0.113 nM-0.187 nM, OD 650 at 0 and 5 min
Reported endpoint: pIC50
One number for each entry, as −log10 of the molar value.

Input: Hello, I am looking for reported pIC50 with gel-filtered platelets for N=C(N)NCCCC(NC(=O)Cc1ccccc1)C(=O)NC(Cc1ccccc1)C(=O)Nc1ccc2c(c1)c(CN1CCCC1)cn2Cc1ccc(F)cc1 (stereo not shown) . Could you help?
Output: 4.35

----------
# Tested on: gel-filtered platelets
# Test: Inhibition of SFLLRN-NH2-induced gel-filtered platelet aggregation
# Type: cell-based
# Condition set: aggregation initiated by SFLLRN-NH2 (2 μM), OD 650 at 0 and 5 min
Reported endpoint: IC50 (µM)
Answers are plain numbers, in µM.

Input: # input compound: N=C(N)NCCCC(NC(=O)Cc1ccccc1)C(=O)NC(Cc1ccccc1)C(=O)Nc1ccc2c(c1)c(CN1CCCC1)cn2Cc1ccc(F)cc1 (stereo not shown) [Compound 17] ; wanted: its IC50
Output: 9.8
